System: HS 578T breast
Experiment: NCI-60 one-dose screen, 48 h (100 = growth as untreated, 0 = no growth, -100 = all killed)
Conditions: 10 µM unless noted
Compounds without any hit were thinned out: in the full panel of roughly 83,000, 20% have a hit. Activity calls are given as the source filed them. How the source made its calls: active means growth percent below 10; inactive means the rest.
// reported growth per item

In the examples that follow, each entry is paired with its recorded growth.
# Compound, growth
data = [
    ("Clc1ccc2nc(-c3ccc(-c4ccc(/C=N/NC5=NCCN5)cc4)s3)cn2c1", "92.6% (inactive)"),
    ("O=S(=O)(c1ccc(N/N=C\\c2ccccc2Cl)cc1)c1ccc(N/N=C/c2ccccc2Cl)cc1", "83% (inactive)"),
    ("CC(=O)n1cc(C=O)c2ccccc21", "104% (inactive)"),
    ("O=C(Nc1cccc(F)c1)c1cc(=O)[nH]c2cc(Br)ccc12", "52.4% (inactive)"),
]

[in] Suppose we examine the compound CC(=O)OC[C@]12CC[C@@H]([C@@H](C)C(N)=O)[C@@H]1[C@H]1CC[C@@H]3[C@@]4(C)CC[C@H](OC(C)=O)C(C)(C)[C@@H]4CC[C@@]3(C)[C@]1(C)CC2 ; what growth value has been reported?
[out] -33% [100 µM] (active)

[in] Suppose we examine the compound COC(=O)C(=Cc1ccccc1[N+](=O)[O-])C(=O)OC ; what growth value has been reported?
[out] 34.5% (inactive)

[in] Suppose we examine the compound COc1ccc(C=C2c3ccccc3-c3ccccc32)cc1 ; what growth value has been reported?
[out] 56.3% (inactive)

[in] Suppose we examine the compound Clc1ccc(/C=N/Nc2nc3ccccc3s2)c(Cl)c1 ; what growth value has been reported?
[out] 84.8% (inactive)

[in] Suppose we examine the compound CCOC(=O)c1cc(C(=O)c2ccc(OC)c(OC)c2)n2ccc(-c3ccccn3)cc12 ; what growth value has been reported?
[out] 64.2% (inactive)

[in] Suppose we examine the compound COC(=O)[C@H](CC(C)C)NC(=O)NC(=O)NC(=O)CI ; what growth value has been reported?
[out] 106% (inactive)

[in] Suppose we examine the compound CCCC(NC(=O)OCc1ccccc1)C(=O)O (stereo not given) ; what growth value has been reported?
[out] 71.9% (inactive)

[in] Suppose we examine the compound CC[C@]12C=CCN3CC[C@@]4(c5ccc(OC)cc5N(C)[C@H]4[C@@](O)(C(=O)OC)[C@@H]1OC(=O)CCC(=O)O[C@H]1CC[C@H]4[C@@H]5CCC6=CC(=O)CC[C@@H]6[C@H]5CC[C@]14C)[C@@H]32 ; what growth value has been reported?
[out] 4.75% [100 µM] (active)

[in] Suppose we examine the compound O=c1c2c3c(sc2n2cnnc2n1Cc1ccccc1)CCCC3 ; what growth value has been reported?
[out] 94.2% (inactive)

[in] Suppose we examine the compound C=C(C)[C@@H]1CC[C@]2(C(=O)O)CC[C@]3(C)[C@H](CC[C@@H]4[C@@]5(C)C/C(=C/c6ccco6)C(=O)C(C)(C)[C@@H]5CC[C@]43C)[C@@H]12 ; what growth value has been reported?
[out] -1.95% [100 µM] (active)

[in] Suppose we examine the compound O=S(=O)(NCCNc1nccc(-c2c(-c3cccc(F)c3)nc3occn23)n1)c1ccc(C(F)(F)F)cc1 ; what growth value has been reported?
[out] 74.3% (inactive)

[in] Suppose we examine the compound Nc1ccc(Cl)c([N+](=O)[O-])c1 ; what growth value has been reported?
[out] 110% (inactive)

[in] Suppose we examine the compound Cc1ccc(NC(=S)/N=c2/n(-c3ccccc3)nc3n2CCN3C2=NCCN2)cc1 ; what growth value has been reported?
[out] 111% (inactive)

[in] Suppose we examine the compound C=C(C)[C@@H]1CC[C@]2(C(N)=O)CC[C@]3(C)[C@H](CC[C@@H]4[C@@]5(C)CC[C@H](O)C(C)(C)[C@@H]5CC[C@]43C)[C@@H]12 ; what growth value has been reported?
[out] -1.7% [100 µM] (active)

[in] Suppose we examine the compound c1nc(N2CCOCC2)c2[nH]ccc2n1 ; what growth value has been reported?
[out] 96.7% (inactive)
